These measurements were taken from patent US20240116985A1.

Biological target: full-length beta-Catenin (Uniprot ID P35222) (Homo sapiens (Human)) (UniProt P35222)
Assay: fluorescence polarization competition; displacement of 5FAM-TCF4(10-53) from full-length beta-catenin
Starred links: 1 amine or outer side, 2 acyl side, 3 side chain; linkers in the order of their positions; H or OH if unused. Positions of bridges follow the written chain, without caps; N, C: chain ends. Non-standard residues stand in square brackets, D forms with d. Primed or numbered codes have the meaning given here. PyrS2″ = (S)-3-amino-1-((pent-4-en-1-yloxy)carbonyl)pyrrolidine-3-carboxylic acid (stapling residue), C=CCCCOC(=O)N1CC[C@@](N[*:1])(C(=O)[*:2])C1; B5(4) = 2,2-bis(4-pentenyl)glycine = 2-amino-2-(pent-4-en-1-yl)hept-6-enoic acid (stitching residue), C=CCCCC(CCCC=C)(N[*:1])C(=O)[*:2]; PyrS2 = (S)-3-amino-1-((pent-4-en-1-yloxy)carbonyl)pyrrolidine-3-carboxylic acid, C=CCCCOC(=O)N1CC[C@@](N[*:1])(C(=O)[*:2])C1; B5(27) = 2-amino-2-(pent-4-en-1-yl)hept-6-enoic acid (two alkene side-chain arms), C=CCCCC(CCCC=C)(N[*:1])C(=O)[*:2]; B5(3) = 2,2-bis(4-pentenyl)glycine (stitching residue), C=CCCCC(CCCC=C)(N[*:1])C(=O)[*:2]; Phe(4-(3-Py)) = N[C@@H](Cc1ccc(-c2cccnc2)cc1)C(=O)O; Nva(5-morpholino) = N[C@@H](CCCN1CCOCC1)C(=O)O; Phe(2-Cl) = N[C@@H](Cc1ccccc1Cl)C(=O)O; Phe(2-F) = N[C@@H](Cc1ccccc1F)C(=O)O; Bta = N[C@@H](Cc1csc2ccccc12)C(=O)O; αAllylPro = C=CC[C@@]1(C(=O)O)CCCN1; tBuAla = CC(C)(C)C[C@H](N)C(=O)O; 3Thi = N[C@@H](Cc1ccsc1)C(=O)O; Cha = N[C@@H](CC1CCCCC1)C(=O)O; S8 = C=CCCCCCC[C@](C)(N)C(=O)O; hSer = N[C@@H](CCO)C(=O)O
Hi there, I'd appreciate the recorded pIC50 for every entry that follows.
Scale explanation: pIC50 corresponds to minus log10 of a concentration expressed in moles per litre.

Sample Ac-[αAllylPro]D[tBuAla][B5(4)]DYAAFN[PyrS2][3Thi][Bta]H-NH2 (staple 1-4, 4-11) [I-843] ; pIC50 observed: 6.81

Sample Ac-[αAllylPro]D[tBuAla][B5(3)]DDAAF[Nva(5-morpholino)][PyrS2″][3Thi][Bta]Q-NH2 (staple 1-4, 4-11) [I-1485] ; pIC50 observed: 8.15

Sample Ac-[αAllylPro]D[tBuAla][B5(3)]DDAAFL[PyrS2″][3Thi][Bta]N-NH2 (staple 1-4, 4-11) [I-1492] ; pIC50 observed: 8.30

Sample Ac-[αAllylPro]D[tBuAla][B5(3)]DDAA[Cha]S[PyrS2″]F[Bta]S-NH2 (staple 1-4, 4-11) [I-1105] ; pIC50 observed: 7.44

Sample Ac-[αAllylPro]DF[B5(27)]DDAAFL[PyrS2][3Thi][Bta][hSer]-NH2 (staple 1-4, 4-11) [I-1510: Ac-PL3-Asp-Phe-B5-Asp-Asp-Ala-Ala-Phe-Leu-PyrS2-3Thi-BztA-Hse-NH2] ; pIC50 observed: 8.00

Sample Ac-[αAllylPro]D[tBuAla][B5(4)]DEAAFT[S8][Phe(2-Cl)][Bta][dT]-NH2 (staple 1-4, 4-11; also: later eluting HPLC peak staple isomer composition) [I-1094] ; pIC50 observed: 7.34

Sample Ac-[αAllylPro]D[tBuAla][B5(3)]DDAAFS[PyrS2″][Phe(2-F)][Bta]S-NH2 (staple 1-4, 4-11) [I-1101] ; pIC50 observed: 7.85

Sample Ac-[αAllylPro]D[Cha][B5(3)]DDAAFS[PyrS2″][Phe(2-F)][Bta]S-NH2 (staple 1-4, 4-11) [I-1102] ; pIC50 observed: 7.80

Sample Ac-[αAllylPro]D[tBuAla][B5(3)]DD[Phe(4-(3-Py))]AFL[PyrS2″]F[Bta]Q-NH2 (staple 1-4, 4-11) [I-1489] ; pIC50 observed: 7.77
